tested on: Rice; test: Pre-emergence herbicidal test, fibre trays (Example 33); type: in vivo; details: 2.0 kg/ha, after 21 days
Recorded metric: herbicidal damage, Rc

# Molecule, herbicidal damage, Rc
records = [
    ("COC(=O)C(C)Oc1ccc(N(C)c2ccc([N+](=O)[O-])cc2[N+](=O)[O-])cc1 (stereo not drawn)", 1),
]

Give herbicidal damage, Rc for all molecules that follow.
1. COC(=O)C(C)Oc1ccc(Nc2ccc(Cl)cc2)cc1 (stereo not drawn)
2. C#CCN(c1ccc(OC(C)C(=O)OC)cc1)c1ccc(C(F)(F)F)cc1[N+](=O)[O-] (stereo not drawn)
3. COC(=O)C(C)Oc1ccc(Nc2ccc(Br)cc2[N+](=O)[O-])cc1 (stereo not drawn)
4. COC(=O)C(C)Oc1ccc(N(C)c2ccc(Cl)cc2[N+](=O)[O-])cc1 (stereo not drawn)
5. COC(=O)C(C)Oc1ccc(Nc2ccc(C(F)(F)F)cc2[N+](=O)[O-])cc1Cl (stereo not drawn)

Result:
0 (0 is 0 to 20% damage)
4
3
5
4

Give herbicidal damage, Rc for all molecules that follow.
1. COC(=O)C(C)Oc1ccc(Nc2ccc([N+](=O)[O-])cc2[N+](=O)[O-])cc1 (stereo not drawn)
2. COC(=O)C(C)Oc1ccc(N(C)c2ccc(Br)cc2[N+](=O)[O-])cc1 (stereo not drawn)
3. COC(=O)C(C)Oc1ccc(N(C)c2ccc(Cl)cc2Cl)cc1 (stereo not drawn)

Result:
["0 (0 is 0 to 20% damage)", 5, "0 (0 is 0 to 20% damage)"]

---

Hi there, I'd appreciate the recorded damage to plants, Wh for every entry that follows.
test system: Wheat; experiment: Post-emergence herbicidal activity (Example 32); type: in vivo; parameters: key: 0-3 scale: 0 = 0-25% damage, 3 = 75-99% kill, 3+ = 100% kill; conditions: 5 kg/ha, 3 weeks after spraying

Sample records with damage to plants, Wh:
# Compound, Assayed system, damage to plants, Wh
rows = [
    ("COC(=O)C(C)Oc1ccc(N(C)c2ccc(Br)cc2[N+](=O)[O-])cc1 (stereo not drawn) [Compound 30]", "Wheat", "3+ (3+ represents 100% kill)"),
    ("COC(=O)C(C)Oc1ccc(Nc2ccc(Br)cc2[N+](=O)[O-])cc1 (stereo not drawn) [Compound 29]", "Wheat", "3+ (3+ represents 100% kill)"),
    ("COC(=O)C(C)Oc1ccc(N(C)c2ccc([N+](=O)[O-])cc2[N+](=O)[O-])cc1 (stereo not drawn) [Compound 18]", "Wheat", 2),
]

Give damage to plants, Wh for all compounds that follow.
1. COC(=O)C(C)Oc1ccc(Nc2ccc(C(F)(F)F)cc2[N+](=O)[O-])cc1 (stereo not drawn) [Compound 21]
2. COC(=O)C(C)Oc1ccc(Nc2ccc(C)cc2[N+](=O)[O-])cc1 (stereo not drawn) [Compound 26]

Result:
1: 3+ (3+ represents 100% kill); 2: 3 (3 represents 75 to 99% kill)

---

test system: Wheat; test: Post-emergence herbicidal activity (Example 32); type: in vivo; set-up: key: 0-3 scale: 0 = 0-25% damage, 3 = 75-99% kill, 3+ = 100% kill; details: 5 kg/ha, 3 weeks after spraying
Hi there, I'd appreciate the recorded damage to plants, Wh for every entry that follows.

Sample records with damage to plants, Wh:
# Molecule, damage to plants, Wh
rows = [
    ("COC(=O)C(C)Oc1ccc(N(C)c2ccc(Cl)cc2)cc1 (stereo not shown)", "0 (0 represents 0 to 25% damage)"),
    ("COC(=O)C(C)Oc1ccc(N(C)c2ccc(Cl)cc2Cl)cc1 (stereo not shown)", 1),
    ("CC(Oc1ccc(Nc2ccc(C(F)(F)F)cc2[N+](=O)[O-])cc1)C(=O)O (stereo not shown)", "3+ (3+ represents 100% kill)"),
    ("COC(=O)C(C)Oc1ccc(Nc2ccc(Cl)cc2Cl)cc1 (stereo not shown)", "3 (3 represents 75 to 99% kill)"),
    ("COC(=O)C(C)Oc1ccc(Nc2ccc(Cl)cc2[N+](=O)[O-])cc1 (stereo not shown)", "3+ (3+ represents 100% kill)"),
    ("COC(=O)C(C)Oc1ccc(Nc2ccc([N+](=O)[O-])cc2[N+](=O)[O-])cc1 (stereo not shown)", 2),
]

We next turn to a different molecule, shown below.
response.value for COC(=O)C(C)Oc1ccc(N(C)c2ccc(C(F)(F)F)cc2)cc1 (stereo not shown) (field: damage to plants, Wh) = 0 (0 represents 0 to 25% damage)

meta.source: patent EP0013144A1
